# Test system: MCF7 (NET 0)
# MEASUREMENT_PROTOCOL: in vitro
# Format: cell-based, human
# CONDITION_INFO: 48 hr assay, without desipramine; read-out: Cytotoxicity IC50, NET inhibition experiment

{"columns": ["SAMPLE_SMILES", "IC50 [µM]"],
 "data": [
  ["N=C(N)NCc1ccc(CCl)c(I)c1", 19.8]
]}

---

# Tested on: SK-N-BE(2c) (NET ++++)
# MEASUREMENT_PROTOCOL: cells
# Assay type: cell-based
# CONDITION_INFO: SK-N-BE(2)-C, 48 h, read-out: Cytotoxicity IC50 of melphalan, 48 hr assay, + 5 μM cmMIBG added at same time
pIC50: −log10 of the molar value.

{"columns": ["SAMPLE_SMILES", "pIC50"],
 "data": [
  ["N[C@@H](Cc1ccc(N(CCCl)CCCl)cc1)C(=O)O", 5.14]
]}
